Biological target: Arginase-2, mitochondrial (Homo sapiens) (UniProt P78540)
Sequence (P78540 whole entry): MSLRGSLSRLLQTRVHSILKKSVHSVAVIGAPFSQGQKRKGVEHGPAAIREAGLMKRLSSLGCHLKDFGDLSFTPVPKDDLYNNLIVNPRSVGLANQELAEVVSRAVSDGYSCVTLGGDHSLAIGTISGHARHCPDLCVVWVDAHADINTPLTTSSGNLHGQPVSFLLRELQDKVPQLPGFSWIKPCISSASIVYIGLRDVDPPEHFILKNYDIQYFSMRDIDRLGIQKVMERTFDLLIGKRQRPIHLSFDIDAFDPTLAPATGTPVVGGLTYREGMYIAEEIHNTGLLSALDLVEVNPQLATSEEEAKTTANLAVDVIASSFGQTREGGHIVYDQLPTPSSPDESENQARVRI
Test: in vitro enzyme assay to detect the production of urea directly proportional to the activity of Arginase II
Type: functional
Set-up: scale not given: in the data most compounds retested in dose-response had high values
Conditions: 33.3 µM

COMPOUND: OCC1CCCN1c1cc(NCCNc2ccccn2)ncn1 (stereo not given)
Percent Effect / %: 3.64
//
COMPOUND: CC(C)CN1C[C@@H]2CN(C(=O)[C@H]3CCCO3)C[C@@H]2C1=O
Percent Effect / %: 3.65
//
COMPOUND: CCNc1cc2c(nn1)CCN(C(=O)c1ccc(CNC(C)=O)o1)C2
Percent Effect / %: 3.99
//
COMPOUND: Cc1[nH]c(=O)c(C#N)cc1C(=O)N1C[C@@H](CN2CCCC2)C[C@H](CO)C1
Percent Effect / %: 3.85
//
COMPOUND: Cc1ccc(CN2CCc3ncnc(C4CC4)c3CC2)s1
Percent Effect / %: -54.3
//
COMPOUND: Cc1cc(CNc2ccc(C(=O)N3CCCC(C)C3)cc2C)no1 (stereo not given)
Percent Effect / %: -1.42
//
COMPOUND: COc1cccc(OC)c1CN1CCC2(CC(Nc3ccncn3)C2)C1 (stereo not given)
Percent Effect / %: 1.77
//
COMPOUND: Cc1cc(NCc2cccnc2)n2nc(C)cc2n1
Percent Effect / %: 1.75
//
COMPOUND: CC(=O)c1ccccc1C(=O)NCC1(CO)CC1
Percent Effect / %: -4.29
//
COMPOUND: CC(=O)N1CCCN(C(=O)CCc2c(C)noc2C)CC1
Percent Effect / %: 0.766
//
COMPOUND: COc1ccc2c(c1)CN(Cc1nc3ccsc3c(=O)[nH]1)CC2
Percent Effect / %: 1.9
//
COMPOUND: O=C1CCC2(CCCN(c3ncc(F)cn3)CC2)N1CC1CC1 (stereo not given)
Percent Effect / %: 5.81
//
COMPOUND: CN(C)C(=O)NC1COC2(CCN(C(=O)Nc3ccccc3)CC2)C1 (stereo not given)
Percent Effect / %: 0.699
//
COMPOUND: COCc1ccc(CN2CCC(O)(Cn3ccc4ncccc43)CC2)o1
Percent Effect / %: 0.233
//
COMPOUND: CCc1nc(C2CCCN(C(=O)c3cn(C)nc3C)C2)no1 (stereo not given)
Percent Effect / %: 0.185
//
COMPOUND: CCn1ccnc1CN1CCCN(C(=O)Cn2nc(C)cc2C)CC1
Percent Effect / %: -0.21
//
COMPOUND: CC(C(=O)NCCCN1CCCCCC1=O)n1cncn1 (stereo not given)
Percent Effect / %: -5.04
//
COMPOUND: NC(=O)Cn1cc(NC(=O)N2CCCC2)cn1
Percent Effect / %: 8.61
//
COMPOUND: CCn1ccnc1CNCC1CCCN1c1cccnn1 (stereo not given)
Percent Effect / %: 0.444
//
COMPOUND: CCNC(=O)c1ccc(N2CCCC(c3nccn3C(C)C)C2)nc1 (stereo not given)
Percent Effect / %: 20.3
//
COMPOUND: c1ccc(-n2ncc(CN3CCCC3Cn3cccn3)n2)cc1 (stereo not given)
Percent Effect / %: -0.205
//
COMPOUND: Cc1ccc2oc(C(=O)N3CCc4nnc(N(C)C)cc4C3)cc2n1
Percent Effect / %: 0.887
//
COMPOUND: CCn1cc2c(n1)C(COC)CN(Cc1ccccn1)C2 (stereo not given)
Percent Effect / %: -2.43
//
COMPOUND: Cc1ccc(C(=O)N2CCC3(CC2)CC(N2CCCC2)C3)cc1
Percent Effect / %: 1.83
//
COMPOUND: COc1ccccc1OC1CCN(Cc2cnc(N(C)C)nc2)CC1
Percent Effect / %: -3.15
